Target: T1, VEGFR-3-Fc (UniProt P35916 25-328)
T1 construct: domain: first three Ig domains; conditioned supernatant of 293T cells; also called VEGFR-3-Fc fusion protein; not shown: Fc fragment of the pIg vector
T1 sequence (looked up): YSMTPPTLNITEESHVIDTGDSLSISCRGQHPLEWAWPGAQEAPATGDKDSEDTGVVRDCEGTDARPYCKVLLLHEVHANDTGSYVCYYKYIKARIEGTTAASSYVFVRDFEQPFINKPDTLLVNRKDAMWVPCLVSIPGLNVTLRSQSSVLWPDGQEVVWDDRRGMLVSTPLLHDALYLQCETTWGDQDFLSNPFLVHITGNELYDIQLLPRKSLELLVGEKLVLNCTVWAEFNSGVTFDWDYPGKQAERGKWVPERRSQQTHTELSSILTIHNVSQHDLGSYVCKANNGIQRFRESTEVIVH
Assay: receptor-Fc IP
measurementLabel: binding result

binder	binding result
34-15 (ligand) GQNHHEVVKSIDNEWRKTQCMPIETLVDIFQEFGVATNTFFKPSCVPLMRCGGCCNSEGLQCVPTEESNITMQIMRITVPLSQGPKPVTISFANHTSCRCMSKLD	no binding
64-7 (ligand) GQNHHEVVKFMDVYQRSYCHPREVCIDVGKEFGVATNTFFKPSCVPLMRCGGCCNSEGLQCVPTEESNITMQIMRIKPHQGQHIGEMSFANHTSCRCMSKLD	no binding
24-14 (ligand) AHYNTEILKSIDNEWRKTQCMPREVCIDVGKEFGVATNTFFKPSCVPLMRCGGCCNDEGLECMNTSTSYLSKTLFEITVPLSQGPKPVTISFANHTSCRCMSKLD	no binding
74-12 (ligand) GQNHHEVVKSIDNEWRKTQCMPREVCIDVGKEFGVATNTFFKPSCVPLMRCGGCCNSEGLQCMNTSTSYLSKTLFEITVPLSQGPKPVTISFLQHNKCECRPKKD	no binding
13-1 (ligand) GQNHHEVVKFMDVYQRSYCHPIETLVDIFQEYPDEIEYIFKPPCVSVYRCGGCCNDEGLECVPTEESNITMQIMRIKPHQGQHIGEMSFLQHNKCECRPKKD	no binding

Look up binding result: 22-10 (ligand) AHYNTEILKSIDNEWRKTQCMPREVCIDVGKEFGVATNTFFKPPCVSVYRCGGCCNDEGLECMNTSTSYLSKTLFEITVPLSQGPKPVTISFLQHNKCECRPKKD
binds

Look up binding result: 12-11 (ligand, also called super-VEGF) GQNHHEVVKFMDVYQRSYCHPIETLVDIFQEFGVATNTFFKPPCVSVYRCGGCCNSEGLQCVPTEESNITMQIMRITVPLSQGPKPVTISFLQHNKCECRPKKDLVFEQKLISEEDLNSAVDHHHHHH
binds

Look up binding result: 24-4 (ligand) AHYNTEILKSIDNEWRKTQCMPREVCIDVGKEFGVATNTFFKPSCVPLMRCGGCCNSEGLQCMNTSTSYLSKTLFEIKPHQGQHIGEMSFLQHNKCECRPKKD
no binding
